# optical density values compiled below
Target: Human Fc (human)
Experiment: ELISA; negative control
Provide only the numeric value, understood in OD.

Sample records with optical density:
369_G05 (antibody, V domains shown) VH: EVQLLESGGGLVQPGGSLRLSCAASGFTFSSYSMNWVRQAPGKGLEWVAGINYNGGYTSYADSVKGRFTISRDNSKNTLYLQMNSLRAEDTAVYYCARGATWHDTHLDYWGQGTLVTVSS VL: DIQMTQSPSSLSASVGDRVTITCRASQSIVSYLNWYQQKPGKAPKLLIYAATSRHSGVPSRFSGSGSGTDFTLTISSLQPEDFATYYCQQSYDSPLTFGGGTKVEIK :: 0.384
367_E07 (antibody, V domains shown) VH: EVQLLESGGGLVQPGGSLRLSCAASGFTFSDYSMNWVRQAPGKGLEWVSSINYNGGYKGYADSVKGRFTISRDNSKNTLYLQMNSLRAEDTAVYYCARGATWHDTHLDYWGQGTLVTVSS VL: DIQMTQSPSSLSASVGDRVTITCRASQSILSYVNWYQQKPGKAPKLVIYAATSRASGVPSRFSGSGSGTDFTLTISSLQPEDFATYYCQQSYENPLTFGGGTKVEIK :: 0.221

Attention now shifts to the item below.
Ask | Note optical density for the binder shown: 370_F01 (antibody, V domains shown) VH: EVQLLESGGGLVQPGGSLRLSCAASGFTFSSYGMNWVRQAPGKGLEWVSNINYNGGYTSYADSVKGRFTISRDNSKNTLYLQMNSLRAEDTAVYYCARGATWHDTHLDYWGQGTLVTVSS VL: DIQMTQSPSSLSASVGDRVTITCRASQSIVSYLNWYQQKPGKAPKLLIYAATSRASGVPSRFSGSGSGTDFTLTISSLQPEDFATYYCQQSYDSPLTFGGGTKVEIK
Reply | 0.407
